# assay summary: Single-dose two-period crossover bioequivalence study, fed (high-fat breakfast): plasma pharmacokinetics of lisinopril and amlodipine (LC-MS/MS, NCA)
# condition parameters: human, plasma, po, Plasma concentration of lisinopril, Mean, mean of 37 subjects, nominal time 24 h, reference (R) tablets
readout label: concentration at 24 h (ng/mL)

>>> df
                                   molecule  recorded_measurement
0  NCCCC[C@H](N[C@@H](CCc1ccccc1)C(=O)O)C(=O)N1CCC[C@H]1C(=O)O [lisinopril]                  4.32

* * *

# assay summary: Single-dose two-period crossover bioequivalence study, fed (high-fat breakfast): plasma pharmacokinetics of lisinopril and amlodipine (LC-MS/MS, NCA)
# condition parameters: human, plasma, po, Plasma concentration of lisinopril, Min, minimum among subjects, nominal time 168 h, reference (R) tablets
readout label: concentration at 168 h (ng/mL)

                                 smiles_str           readout_label  unit_annotation  recorded_measurement
0  NCCCC[C@H](N[C@@H](CCc1ccccc1)C(=O)O)C(=O)N1CCC[C@H]1C(=O)O  concentration at 168 h            ng/mL                     0

* * *

# assay summary: Single-dose two-period crossover bioequivalence study, fed (high-fat breakfast): plasma pharmacokinetics of lisinopril and amlodipine (LC-MS/MS, NCA)
# condition parameters: human, in vivo, po, Plasma concentration of lisinopril, Mean, mean of 37 subjects, nominal time 6 h, reference (R) tablets
readout label: concentration at 6 h (ng/mL)

                                 smiles_str  recorded_measurement
0  NCCCC[C@H](N[C@@H](CCc1ccccc1)C(=O)O)C(=O)N1CCC[C@H]1C(=O)O                  13.3

* * *

# assay summary: Single-dose two-period crossover bioequivalence study, fasting: plasma pharmacokinetics of lisinopril and amlodipine (LC-MS/MS, NCA);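 note: single tablet dose 10 mg/5 mg fixed combination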
# condition parameters: human, plasma, po, Plasma concentration of amlodipine, Mean, reference (R) tablets, nominal time 24 h, mean of subjects
readout label: concentration at 24 h (ng/mL)

>>> print(df.to_string())
                                   molecule          readout_label  unit_annotation  recorded_measurement
0  CCOC(=O)C1=C(COCCN)NC(C)=C(C(=O)OC)C1c1ccccc1Cl (stereo not shown)  concentration at 24 h            ng/mL                  1.41

* * *

# assay summary: Single-dose two-period crossover bioequivalence study, fed (high-fat breakfast): plasma pharmacokinetics of lisinopril and amlodipine (LC-MS/MS, NCA)
# condition parameters: human, plasma, po, Plasma concentration of lisinopril, Min, minimum among subjects, nominal time 4 h, reference (R) tablets
readout label: concentration at 4 h (ng/mL)

In [3]: df
Out[3]:
                                 smiles_str  recorded_measurement
0  NCCCC[C@H](N[C@@H](CCc1ccccc1)C(=O)O)C(=O)N1CCC[C@H]1C(=O)O                  1.37

* * *

# assay summary: Single-dose two-period crossover bioequivalence study, fed (high-fat breakfast): plasma pharmacokinetics of lisinopril and amlodipine (LC-MS/MS, NCA)
# condition parameters: human, in vivo, po, Plasma concentration of lisinopril, individual subjects, nominal time 6 h, reference (R) tablets
readout label: concentration at 6 h (ng/mL)

In [3]: df
Out[3]:
                                   compound  recorded_measurement
0  NCCCC[C@H](N[C@@H](CCc1ccccc1)C(=O)O)C(=O)N1CCC[C@H]1C(=O)O [lisinopril]                  22.4
